assay: HPAF-II Cancer Cell Toxicity qHTS against the NCATS CANVASS Library (AID 1347346); conditions: HPAF-II viability, CellTiter-Glo ATP luminescence, 72 h; series mostly up to 38.3 µM; further: nearly all actives have a fitted effect of over 55% in size
Records with an inconclusive call do not appear. The source made the active and inactive calls. The call rests on the fitted dose curve; in most records, active means well fitted cell-killing curve with a large enough effect; inconclusive means small, poorly fitted or top-dose-only effect; inactive means flat fitted curve, though single readings scatter.
Entry note: the call must match one of active, inactive

A selection of reference data follows.
INSERT INTO assay_data (molecule, group) VALUES
  ('CC(C)[C@@H]1CC(=O)c2coc3c2[C@H]1C[C@@H](C)C3=O', 'inactive'),
  ('C/C(=C\[C@H](C)C(=O)CCCC1CC(=O)NC(=O)C1)[C@@H]1OC(=O)/C=C/CC/C=C/[C@H](O)[C@@H](O)[C@@H]1C', 'active'),
  ('C/C=C/C(=O)C1(O)CC2CC(C(=O)O)CC(C)C2C1C1=C2C(=O)NC(=O)C2=C(CCCCC)C(C)O1 (centres undefined)', 'active'),
  ('C=C1CCC2C(C)(C(=O)O)CCC(CC/C(C)=C/C(=O)NC(CCC(N)=O)C(=O)O)[C@@]2(C)C1 (some centres undefined)', 'inactive'),
  ('C=C(Cl)[C@](Cl)(CBr)CC[C@@H](Br)C(C)(C)Cl', 'active');

Prompt: Returns: the outcome recorded for CC(C)=CCCC(C)(O)[C@H]1CC=C(C)C(O)C1 (some centres undefined) in this assay.
Response: inactive

Prompt: Returns: the outcome recorded for COc1ccc([C@@H]2c3cc4c(cc3C(=O)C(C)C2C)OCO4)cc1OC (some centres undefined) in this assay.
Response: inactive

Prompt: Returns: the outcome recorded for `COc1c(O)cc(O)c2c(=O)cc(-c3ccccc3)oc12` in this assay.
Response: inactive

Prompt: Returns: the outcome recorded for `CC(C)=CC[C@H]1C[C@@]2(CC=C(C)C)C(=O)[C@](CC=C(C)C)(C(=O)C(C(=O)c3ccccc3)=C2O)C1(C)C` in this assay.
Response: active

Recorded values, source PubChem BioAssay (NCATS).
